Test system: UO-31 renal
test-details: NCI tumour cell line growth inhibition, 48 h
measured-quantity: TGI (µM)
Please state the figure in µM; there is no need to write the unit.

> print(dat)
                            chemical.string  measured.result
1  C[C@@H]1Nc2cc(NC(=O)OCCF)nc(N)c2N=C1c1ccccc1             89.1

(Q) Notebook entry, UO-31 renal assay: TGI of COc1ccccc1CNCCCN1C(=O)c2ccc3c4c(ccc(c24)C1=O)C(=O)N(CCCNCCNCCCN)C3=O = ?
(A) 84.5

(Q) Which measured TGI belongs to C[C@@H](c1ccccc1)n1c(N)c(C#N)c2ccc([N+](=O)[O-])cc2c1=O , tested on UO-31 renal?
(A) 24.1

(Q) Please provide the recorded TGI for Oc1c(N2CCOCC2)cc(-c2cc(N3CCOCC3)c(O)c3ccccc23)c2ccccc12 , tested on UO-31 renal.
(A) 4.66

(Q) Item C=C(C)CCN[Si](c1ccccc1)(c1ccccc1)C(C)(C)C with UO-31 renal - TGI?
(A) 26.9
